These measurements were taken from paper PMC2987701.

Molecular target: GST-Bfl-1 (Homo sapiens, UniProt Q16548)
Sequence (Q16548 1-175): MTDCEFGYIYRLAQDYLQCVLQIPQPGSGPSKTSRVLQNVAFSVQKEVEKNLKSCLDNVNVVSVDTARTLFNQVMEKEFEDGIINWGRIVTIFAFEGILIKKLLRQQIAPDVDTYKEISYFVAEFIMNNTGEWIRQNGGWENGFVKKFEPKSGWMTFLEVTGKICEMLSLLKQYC
Assay: High-throughput fluorescence polarization
Type: binding
Settings: result in words
Measured Attribute: Potency of Bfl-1 inhibition in words (FP / assay not specified)

{"columns": ["Chem Smiles", "Result"],
 "data": [
  ["O=C1C(Cl)=C(N2CCN(CCO)CC2)C(=O)N1c1ccc(Cl)c(Cl)c1", "Submicromolar"],
  ["O=C1C(Cl)=C(N2CCN(CCOCCO)CC2)C(=O)N1c1ccc(Cl)c(Cl)c1", "Submicromolar"],
  ["O=C1C(Cl)=C(N2CCN(C/C=C/c3ccccc3)CC2)C(=O)N1c1ccc(Cl)c(Cl)c1", "Submicromolar"]
]}
